Test system: γ-secretase; production of amyloid beta protein Aβ(1-42)
Test: Cell-Based γ-Secretase Assay with ELISA Readout
Conditions: human WT-APP overexpressing CHO cells; footnote 8: single determination; read-out: Aβ 42B IC50 (nM) (Geometric Mean of 2-8 Determinations)
Counter-ions that a name gives are not always drawn.
Quick rule for you: IC50 under 500 nM gets 1, anything else gets 0.

Example entries begin here.
{"compound": "O=C(O)C[C@@H]1CC[C@@H](N2CC3(CCCC3)CC3(CCCC3)C2)[C@H](c2ccc(C(F)(F)F)cc2)C1", "assigned.label": 1}
{"compound": "CC(C)CCN(CC1CCCCC1)[C@@H]1CC[C@@H](CC(=O)O)C[C@H]1c1ccc(C(F)(F)F)cc1", "assigned.label": 1}
{"compound": "CC(C)CCN(CCC(F)(F)F)[C@@H]1CC[C@@H](CC(=O)O)C[C@H]1c1ccc(C(F)(F)F)nc1", "assigned.label": 0}
{"compound": "CC(C)CCN(CCC(F)(F)F)[C@@H]1CC[C@@H](CC(=O)O)C[C@H]1c1ccc(C(F)(F)F)cc1 [Example 11, acetic acid, hydrochloride salt]", "assigned.label": 1}

Input line: Please determine if CC(C)CCN(CCC(F)(F)F)[C@@H]1CO[C@@H](CC(=O)O)C[C@H]1c1ccc(C(F)(F)F)cc1 [Example 10, acetic acid, hydrochloride salt] is below 500 nM in terms of IC50.
Output line: 0

Input line: Consider the compound `O=C(O)C[C@@H]1CC[C@@H](N(CC2CCCCC2)CC2CCCCC2)[C@H](c2ccc(C(F)(F)F)cc2)C1` . Is its IC50 strictly less than 500 nM?
Output line: 1

Just for reference, patent US20120295923A1 is where these values come from.
